The reported numbers originate from PubChem BioAssay (NCI).

Tested on: SNB-78 CNS
Experiment: NCI tumour cell line growth inhibition, 48 h
In this section we review reported TGI values for a set of compounds.
Give the number; µM is assumed, so skip it.

Entry CC1[C@@H]2C[C@@H]3O[C@@]34[C@H]3CCC5Cc6nc7c(nc6C[C@@]5(C)C3(O)CC(=O)[C@@]24CO[C@]12OC(C)(C)CC2O)CC1CC[C@@H]2C3=C[C@H]4O[C@@]5(O[C@@](C)(CO)C[C@@H]5O)C(C)[C@@]4(O)[C@]3(C)[C@@H](O)CC2[C@]1(C)C7 (stereo not given in full) : TGI on SNB-78 CNS = 0.622

Entry COc1cccc(C2N3CCCCC3[C@@H]3c4[nH]c5ccccc5c4CCN23)c1OC (stereo not given in full) : TGI on SNB-78 CNS = 29.8

====

System: NCI-H460 lung
Experiment: NCI tumour cell line growth inhibition, 48 h
In this section we review reported GI50 values for a set of compounds.

Measured GI50, CN1CCN(Cc2ccc(NC(=O)c3cncc(C#Cc4cncc5[nH]ncc45)c3)cc2C(F)(F)F)CC1 : 1190 nM

Measured GI50, O=C(CN1CCN(c2cc3c(cc2F)c(=O)c(C(=O)O)cn3C2CC2)CC1)Nc1ccc(C(=O)/C=C/c2ccccc2)cc1 : 3170 nM

Measured GI50, N#CCCCCCn1c2ccccc2c2c3c(c4c5ccccc5[nH]c4c21)C(=O)N(O)C3=O : 1190 nM

Measured GI50, c1ccc2c(Nc3ccc4c(c3)OCO4)c3ccoc3nc2c1 : 16500 nM

More entries:
Measured GI50, O=C(Nc1ccc(Oc2cccc(Cl)c2)c(Cl)c1)c1cccnc1 : 1880 nM

Measured GI50, Cn1cc(C2=C(c3cn(C)c4cc(Cl)ccc34)C(=O)NC2=O)c2ccccc21 : 96.1 nM

Measured GI50, Cc1cncc2cccc(S(=O)(=O)N3CCCNC[C@@H]3C)c12 : 8810 nM

====

Test system: HS 578T breast
Test: NCI tumour cell line growth inhibition, 48 h
*1 amine or outer side, *2 acyl side, *3 side chain or, on linkers, in order; H or OH if unused. Where a SMILES comes first, the peptide text is derived from it. [ ]: non-standard residue; d: D form. The star is where a group is joined. X12 = NCCCCC(N[*:1])C(=O)CN1CCCC1C(=O)[*:2]; Pentadecanoyl = CCCCCCCCCCCCCCC(=O)*
QUANTITY NAME: GI50

Please review the following examples before continuing.
Measured GI50, CCCCCCCCCCCCCCC(=O)NC(CCCCN)C(=O)CN1CCCC1C(=O)NCC(=O)NC(Cc1ccccc1)C(=O)N1CCCC1C(=O)NC(CO)C(=O)NC(Cc1ccc(O)cc1)C(=O)NC(CCCCN)C(=O)NC(CC(C)C)C(=O)NC(CCCN=C(N)N)C(=O)N1CCCC1C(=O)NCC(N)=O (stereo not drawn) (Pentadecanoyl-[X12]GFPSYKLRPG-NH2; configuration not given here) : 38600 nM

Measured GI50, Clc1ccc2c(NCCNc3nc(Cl)nc4ccccc34)ccnc2c1 : 2260 nM

Alright, here's another compound for you.
Measured GI50, O=C(Nc1ccc(Oc2cccc(Cl)c2)c(Cl)c1)c1cccnc1 : 1830 nM

====

Tested on: NCI-H460 lung
Assay: NCI tumour cell line growth inhibition, 48 h
In this section we review reported TGI values for a set of compounds.

Measured TGI, Nc1cc2ccncc2c2ccccc12 : 70.6 µM

More entries:
Measured TGI, O=C(/C=C(/C=C/c1csc2ccccc12)OB(F)F)/C=C/c1csc2ccccc12 : > 50 µM

====

In this section we review reported TGI values for a set of molecules.
Tested on: MDA-MB-435
Experiment: NCI tumour cell line growth inhibition, 48 h

Please review the following examples before continuing.
Entry O=C(O)CCC(NC(=O)/C(=C/c1ccccc1)NC(=O)c1ccccc1)C(=O)O (configuration not stated) : TGI on MDA-MB-435 = > 100 µM

Entry CCN(CC)c1ccc(/C=C2/NC(=O)NC2=O)cc1 : TGI on MDA-MB-435 = 3.53 µM

Entry O=C1CCc2c(sc3ncnc(Nc4cccc(Br)c4)c23)C1 : TGI on MDA-MB-435 = 3.82 µM

More entries:
Entry CC1CC2OC(=N)C1(C#N)C2(C#N)C#N (configuration not stated) : TGI on MDA-MB-435 = > 100 µM

Entry COc1ccc(Cn2nc(OCc3ccccc3)c3cc([N+](=O)[O-])ccc32)cc1 : TGI on MDA-MB-435 = > 100 µM

Entry CN1C(=O)[C@](C)(Cc2ccc(F)cc2)N(C(=O)OC(C)(C)C)[C@@H]1C(C)(C)C : TGI on MDA-MB-435 = > 100 µM

Entry CC(=O)c1c2c(cc3c1CCC3)CCC2 : TGI on MDA-MB-435 = > 100 µM

====

Test system: K-562 leukemia
Assay: NCI tumour cell line growth inhibition, 48 h
In this section we review reported TGI values for a set of compounds.

Please review the following examples before continuing.
Measured TGI, COC1OC(=O)C(OC)C(OC)C1OC (stereo not given) : > 100 µM

Measured TGI, COc1ccc(Nc2ccnc3cc(Cl)ccc23)cc1CN(CCCl)CCCl : > 22.7 µM

Measured TGI, Cn1cc(C2=C(c3cccc(Cl)c3)C(=O)NC2=O)c2ccccc21 : > 25 µM

Measured TGI, O=C(O)CCC(NC(=O)/C(=C/c1ccccc1)NC(=O)c1ccccc1)C(=O)O (stereo not given) : > 100 µM

More entries:
Measured TGI, CSC(=N/N=C(\C)c1ccc(S(=O)(=O)N(C)c2ccccc2)cc1)SC : > 100 µM

Measured TGI, CC(C(=O)C(C)O[Si](c1ccccc1)(c1ccccc1)C(C)(C)C)=P(c1ccccc1)(c1ccccc1)c1ccccc1 (stereo not given) : 12.3 µM

Measured TGI, Nc1ccc(Sc2ccc3c4c2cccc4c(=O)n2c4ccccc4nc32)cc1 : > 100 µM

Measured TGI, O=C(OCC(OC(=O)c1ccccc1)C1CC(C(O)C2CCCCC2)C(=O)O1)c1ccccc1 (stereo not given) : 50.5 µM

Measured TGI, Cc1nc(C)c(C(=O)NNC(=O)c2ccccc2)cc1C(=O)NNC(=O)c1ccccc1 : > 100 µM

Measured TGI, C/C(=C\COc1ccc2ccc(=O)oc2c1)CCC(=O)C(C)(C)O : 46.8 µM

====

Test system: SNB-75 CNS
Test: NCI tumour cell line growth inhibition, 48 h
QUANTITY NAME: TGI

Measured TGI, Clc1cc(-c2csc(Cl)c2)cs1 : > 100 µM

Measured TGI, O=C1/C(=C/c2ccccc2)CN(C(=O)Oc2ccccc2)C/C1=C\c1ccccc1 : 17.5 µM

Measured TGI, Cc1nc2ccccc2nc1N1CCCC1 : > 100 µM

Measured TGI, O=c1cc(-c2ccccc2)[nH]c2c(F)ccc(F)c12 : 59 µM

Measured TGI, NC(=O)COc1ccc(Br)cc1Br : > 100 µM

More entries:
Measured TGI, N#Cc1nc(C(=O)c2ccccc2)oc1N : 8.45 µM

Measured TGI, C/C(CC(=O)Nc1cc(Cl)c(Cl)cc1Cl)=N\NS(=O)(=O)c1ccc(C)cc1 : > 100 µM

Measured TGI, NC(=O)c1nnc2c(F)cccc2c1N : > 100 µM

Measured TGI, COC(=O)[C@@H](C)C[C@H](Cc1ccccc1)NC(=O)c1csc([C@@H](C[C@H](C(C)C)N(C)C(=O)[C@@H](NC(=O)CN(C)C)C2CC2)OC(C)=O)n1 : > 16.5 µM

Measured TGI, COc1cc(C2CC(c3cc(Cl)c(C)cc3O)=NN2c2ccc(S(N)(=O)=O)cc2)cc(OC)c1OC (stereo unspecified) : 28.3 µM

Measured TGI, O=C(N/N=C\c1cc(Br)cc(Br)c1O)N/N=C/c1cc(Br)cc(Br)c1O : 15.6 µM

====

System: HCT-116 colon
Assay: NCI tumour cell line growth inhibition, 48 h
In this section we review reported TGI values for a set of compounds.

Please review the following examples before continuing.
Measured TGI, O=C1NC(=Nc2ccccc2Cl)SC1C(=O)Nc1ccc([N+](=O)[O-])cc1[N+](=O)[O-] (centres undefined) : > 100 µM

Measured TGI, CCCCCC(=O)OCC1(CO)C/C(=C/CC(C(C)C)C(C)C)C(=O)O1 (centres undefined) : > 75 µM

More entries:
Measured TGI, Cc1nc2cccc(F)c2c(=O)n1-c1nnc(C2CC2)s1 : > 10 µM

Measured TGI, CCOC(=O)CCN1C(=O)c2c(NC(=O)C(=O)O)cccc2S1(=O)=O : > 100 µM

Measured TGI, CC1C/C(=C\c2ccc(O)c(O)c2)C(=O)/C(=C/c2ccc(O)c(O)c2)C1 (centres undefined) : 20 µM

Measured TGI, CCOC(=O)N1c2c(c3ccccc3n2C(=O)OCC)C(=O)C(OC)N1C(=O)OCC (centres undefined) : 86.9 µM

Measured TGI, NC(=O)c1nnc2c(F)cccc2c1N : > 100 µM

Measured TGI, CCc1cc(Nc2nccc(-c3c(-c4ccc(OC)c(C(=O)Nc5c(F)cccc5F)c4)nc4ccccn34)n2)c(OC)cc1N1CCC(N2CCN(S(C)(=O)=O)CC2)CC1 : > 100 µM

Measured TGI, CC(=O)OCC12C(OC(C)=O)C[C@@H](C)C3(CC(c4ccoc4)OC3=O)C1CCC(OC(C)=O)C21CO1 (some centres undefined) : > 100 µM
